Molecular target: Snake venom metalloproteinase BaP1 (Bothrops asper)
Sequence (P83512 whole entry): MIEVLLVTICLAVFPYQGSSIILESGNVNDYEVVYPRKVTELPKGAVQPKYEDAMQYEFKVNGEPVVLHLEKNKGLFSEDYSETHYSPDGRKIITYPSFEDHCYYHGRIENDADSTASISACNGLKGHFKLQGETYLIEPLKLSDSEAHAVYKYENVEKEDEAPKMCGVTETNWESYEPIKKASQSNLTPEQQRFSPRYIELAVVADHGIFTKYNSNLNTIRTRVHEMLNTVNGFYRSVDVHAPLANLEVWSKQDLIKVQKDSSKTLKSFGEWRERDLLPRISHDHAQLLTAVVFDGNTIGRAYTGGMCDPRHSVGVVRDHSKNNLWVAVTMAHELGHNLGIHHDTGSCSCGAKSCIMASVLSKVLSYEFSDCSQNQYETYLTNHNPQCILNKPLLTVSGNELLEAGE
quantity_name: IC50 (µM)

>>> number("Cc1ccc(OCC(=O)N/N=C2\\C(=O)NC(=O)N=C2O)cc1")
20
>>> number("CC(C)c1ccc(OCC(=O)N/N=C2\\C(=O)NC(=O)N=C2O)cc1")
17
